LogP: recorded values
test: physchem; assay type: physicochemical
Marks after values point to notes of the source that are not given here.
Measure name: LogP

{"Compound": "C[Si](C)(C)C#Cc1ccc(C(F)(F)CNC(=O)c2cc(Cl)ncc2Oc2cccc(C(F)F)c2)c(Cl)c1", "Measure name": "LogP", "Result": "5.97^[a]"}
{"Compound": "Cc1cccc(Oc2cnc(Cl)cc2C(=O)NCC(F)c2ccc(Cl)cc2Cl)c1 (racemic)", "Measure name": "LogP", "Result": "4.92^[a]"}
{"Compound": "Cc1ccc(CONC(=O)c2cc(Cl)ncc2Oc2cccc(C(F)(F)F)c2)c(C)c1", "Measure name": "LogP", "Result": "4.26^[a]"}
{"Compound": "CNc1c(Cl)ncc(Oc2cccc(C(F)(F)F)c2)c1C(=O)NCC(F)(F)c1ccc(C)cc1C", "Measure name": "LogP", "Result": "4.44^[a]"}
{"Compound": "Cc1ccc(CCNC(=O)c2cc(Cl)ncc2Oc2ccc(C(F)(F)F)cc2)c(C)c1", "Measure name": "LogP", "Result": "4.77^[a]"}
{"Compound": "Cc1ccc(CCNC(=O)c2cc(Cl)ncc2Oc2cccc(C)c2F)c(C)c1", "Measure name": "LogP", "Result": "4.76^[a]"}
{"Compound": "Cc1ccc(C(F)(F)CNC(=O)c2c(Oc3cccc(C4CC4)c3F)cnc(Cl)c2Cl)c(C)c1", "Measure name": "LogP", "Result": "5.08^[a]"}
{"Compound": "Cc1ccc(CCNC(=O)c2cc(Cl)nc(Cl)c2Oc2cccc(C(F)(F)F)c2)c(C)c1", "Measure name": "LogP", "Result": "5.14^[a]"}
{"Compound": "Cc1ccc(CCNC(=O)c2cc(Cl)ncc2Oc2cccc(Cl)c2F)c(C)c1", "Measure name": "LogP", "Result": "4.71^[a]"}
{"Compound": "Cc1ccc(C(F)CNC(=O)c2cc(C)ncc2Oc2cccc(C(F)(F)F)c2)c(Cl)c1 (racemic)", "Measure name": "LogP", "Result": "4.08^[a]"}
{"Compound": "Cc1ccc(CCNC(=O)c2cc(Cl)ncc2Oc2cccc(C#N)c2F)c(C)c1", "Measure name": "LogP", "Result": "3.91^[a]"}
{"Compound": "Cc1cnn(CCNC(=O)c2cc(Cl)ncc2Oc2cccc(C(F)(F)F)c2)c1", "Measure name": "LogP", "Result": "3.14^[a]"}
{"Compound": "O=C(NCC(F)(F)c1ccc(C2CC2)cc1Cl)c1cc(Cl)ncc1Oc1cccc(C2CC2)c1", "Measure name": "LogP", "Result": "5.45^[a]"}
{"Compound": "COc1cccc(Oc2cnc(Cl)cc2C(=O)NCCc2ccc(C)cc2C)c1F", "Measure name": "LogP", "Result": "4.26^[a]"}
{"Compound": "Cc1ccc(C(F)CNC(=O)c2cc(C)ncc2Oc2cccc(C(F)F)c2)c(Cl)c1 (stereo not shown)", "Measure name": "LogP", "Result": "3.63^[a]"}
{"Compound": "COc1ccc(CCN(C(C)=O)C(=O)c2cc(Cl)ncc2Oc2cccc(C(F)(F)F)c2)cc1", "Measure name": "LogP", "Result": "4.55^[a]"}
